I'd be grateful if you could share measured pIC50 for these entries.
Test target: human V2 receptor (Homo sapiens)
Construct: expressed in transfected cells; host or cells: CHO K1 (ATCC) expressing firefly luciferase under a CRE-responsive promoter
Sequence (P30518 whole entry): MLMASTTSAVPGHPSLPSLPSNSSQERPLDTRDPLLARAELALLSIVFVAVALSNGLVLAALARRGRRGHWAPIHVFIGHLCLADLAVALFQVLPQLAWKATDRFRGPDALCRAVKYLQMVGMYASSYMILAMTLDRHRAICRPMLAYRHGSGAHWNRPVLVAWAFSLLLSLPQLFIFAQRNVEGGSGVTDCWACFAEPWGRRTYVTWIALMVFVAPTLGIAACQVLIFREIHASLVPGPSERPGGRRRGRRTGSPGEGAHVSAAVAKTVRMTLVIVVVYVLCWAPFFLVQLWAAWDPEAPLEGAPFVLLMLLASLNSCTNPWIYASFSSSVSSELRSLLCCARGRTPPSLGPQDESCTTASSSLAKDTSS
Assay protocol: Cellular in vitro assay for determining vasopressin receptor activity, V2 receptor cell line (CHO, CRE-luciferase)
Type: cell-based
Condition parameters: CHO cell line transfected with human V2 receptor; [Arg8]-vasopressin at EC50 concentration, 3 hours; read-out: IC50 hV2
pIC50 (log units): -log10 of the concentration in mol/L.

# input compound: O=C(CC(F)(F)F)Nc1ncccc1-n1cnc(Cn2nc(-c3ccc(Cl)cc3)n(C[C@H](O)C(F)(F)F)c2=O)n1 [Example 74] ; wanted: its pIC50
6.06

Which measured pIC50 value corresponds to Cc1nonc1CC(=O)Nc1ncccc1-n1cnc(Cn2nc(-c3ccc(Cl)cc3)n(C[C@H](O)C(F)(F)F)c2=O)n1 [Example 138] ?
5.63

Consider the compound O=C(NCC(F)(F)F)c1ccccc1-n1cnc(Cn2nc(-c3ccc(Cl)cc3)n(C[C@H](O)C(F)(F)F)c2=O)n1 [Example 174] and give its measured pIC50.
6.59

Query (compound): Cc1nccn1CC(=O)Nc1ncccc1-n1cnc(Cn2nc(-c3ccc(Cl)cc3)n(C[C@H](O)C(F)(F)F)c2=O)n1 [Example 94] ; field requested: pIC50
5.65

* * *

Test target: human V1a receptor (Homo sapiens, UniProt P37288)
Construct: expressed in transfected cells; host or cells: CHO K1 (ATCC), also stably transfected with a modified aequorin
Sequence (P37288 whole entry): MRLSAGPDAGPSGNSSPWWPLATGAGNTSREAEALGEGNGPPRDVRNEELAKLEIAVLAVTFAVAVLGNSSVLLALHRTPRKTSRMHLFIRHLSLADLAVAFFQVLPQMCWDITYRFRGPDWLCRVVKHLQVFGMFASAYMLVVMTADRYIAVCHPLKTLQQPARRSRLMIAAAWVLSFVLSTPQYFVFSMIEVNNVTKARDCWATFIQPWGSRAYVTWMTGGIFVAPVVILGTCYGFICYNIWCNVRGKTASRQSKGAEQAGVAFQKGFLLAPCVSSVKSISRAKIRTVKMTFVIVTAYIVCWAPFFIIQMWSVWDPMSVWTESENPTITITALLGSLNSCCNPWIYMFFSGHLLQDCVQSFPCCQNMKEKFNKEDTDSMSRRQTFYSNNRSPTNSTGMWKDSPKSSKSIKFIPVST
Assay protocol: Cellular in vitro assay for determining vasopressin receptor activity, V1a receptor cell line (CHO, aequorin luminescence)
Format: cell-based
Condition parameters: selectivity ratio IC50 hV2 / IC50 hV1a
Quantity name: ratio IC50 hV2/hV1a

What measured ratio IC50 hV2/hV1a goes with NC(=O)[C@@H]1CCN(C(=O)c2ccccc2-n2cnc(Cn3nc(-c4ccc(Cl)cc4)n(C[C@H](O)C(F)(F)F)c3=O)n2)C1 ?
66.4

So what does the record say about ratio IC50 hV2/hV1a for O=c1n(Cc2ncn(-c3cccnc3NCC3CS(=O)(=O)C3)n2)nc(-c2ccc(Cl)cc2)n1C[C@H](O)C(F)(F)F ?
15.6

Name the reported ratio IC50 hV2/hV1a value associated with the compound O=C1CN(C(=O)c2nc(Cn3nc(-c4ccc(Cl)cc4)n(C[C@H](O)C(F)(F)F)c3=O)nn2-c2cnccc2C(=O)NC2CC2)CCN1
3.7

Quick check: ratio IC50 hV2/hV1a of CC1(C)COCCN1C(=O)c1cccc(Cl)c1-n1cnc(Cn2nc(-c3ccc(Cl)cc3)n(C[C@@H](O)C(F)(F)F)c2=O)n1 ?
75.3

Fill in the blank: the reported ratio IC50 hV2/hV1a of CC1C(=O)NCCN1C(=O)c1ccccc1-n1cnc(Cn2nc(-c3ccc(Cl)cc3)n(C[C@H](O)C(F)(F)F)c2=O)n1 (mixture of isomers) is ____.
129.3

Can you share its ratio IC50 hV2/hV1a? I mean this compound: O=C(c1ccccc1-n1cnc(Cn2nc(-c3ccc(Cl)cc3)n(C[C@H](O)C(F)(F)F)c2=O)n1)N1CCSC1
289.8

ratio IC50 hV2/hV1a lookup needed for O=C(NCC(O)CO)c1ccccc1-n1cnc(Cn2nc(-c3ccc(Cl)cc3)n(C[C@H](O)C(F)(F)F)c2=O)n1 (mixture of isomers) , thanks.
277.2

Entry O=C(NCC(F)(F)F)c1ccccc1-n1cnc(Cn2nc(-c3ccc(Cl)cc3)n(C[C@@H](O)C(F)(F)F)c2=O)n1 : reported ratio IC50 hV2/hV1a = ?
54.1

Name the reported ratio IC50 hV2/hV1a value associated with the compound COCC1CCCN1C(=O)c1ccncc1-n1nc(Cn2nc(-c3ccc(Cl)cc3)n(C[C@H](O)C(F)(F)F)c2=O)nc1C(=O)NCC(C)(C)N (mixture of isomers)
297.6

For the compound O=c1n(Cc2ncn(-c3cnccc3N3CCOCC3)n2)nc(-c2ccc(Cl)cc2)n1C[C@H](O)C(F)(F)F , what ratio IC50 hV2/hV1a is on record?
40.8

Quick one: ratio IC50 hV2/hV1a for O=C(Nc1cccc[n+]1[O-])c1ccccc1-n1cnc(Cn2nc(-c3ccc(Cl)cc3)n(C[C@H](O)C(F)(F)F)c2=O)n1 ?
2.0

What ratio IC50 hV2/hV1a value was documented for this compound, CC1CCN(C(=O)c2ccccc2-n2cnc(Cn3nc(-c4ccc(Cl)cc4)n(C[C@H](O)C(F)(F)F)c3=O)n2)C(C)C1 (stereo partly shown) ?
223.4

Data request, read-out ratio IC50 hV2/hV1a, for CC(=O)Nc1cccnc1-n1cnc(Cn2nc(-c3ccc(Cl)cc3)n(C[C@H](O)C(F)(F)F)c2=O)n1
52.4

* * *

Test target: human V1a receptor (Homo sapiens, UniProt P37288)
Assay protocol: Cellular in vitro assay for determining vasopressin receptor activity, V1a receptor cell line (CHO, aequorin luminescence)
Condition parameters: CHO cell line transfected with human V1a receptor; [Arg]-vasopressin at EC50 concentration; read-out: IC50 hV1a
Quantity name: log10 IC50 (log10 of the value in nM)
All values: log10 IC50 [nM].

Notebook: pull reported log10 IC50 for human V1a receptor (Homo sapiens, UniProt P37288), entry O=C1CN(C(=O)c2ncccc2-n2cnc(Cn3nc(-c4ccc(Cl)cc4)n(C[C@@H](O)C(F)(F)F)c3=O)n2)CCN1 [Example 469]
2.75

Hi! What's the reported log10 IC50 for CC(C)(C)OC(=O)CCNc1ccncc1-n1cnc(Cn2nc(-c3ccc(Cl)cc3)n(C[C@H](O)C(F)(F)F)c2=O)n1 [Example 19] on human V1a receptor (Homo sapiens, UniProt P37288)?
2.63

Recall the recorded log10 IC50 for CN(CCC#N)C(=O)c1ccccc1-n1cnc(Cn2nc(-c3ccc(Cl)cc3)n(C[C@H](O)C(F)(F)F)c2=O)n1 [Example 362] with human V1a receptor (Homo sapiens, UniProt P37288) and state it.
0.69

Request body: readout log10 IC50, system human V1a receptor (Homo sapiens, UniProt P37288), query O=C(NC1CC1)c1ccncc1-n1nc(Cn2nc(-c3ccc(Cl)cc3)n(C[C@H](O)C(F)(F)F)c2=O)nc1C(=O)N1CCS(=O)(=O)CC1 [Example 520] . Return the value.
2.47

Hello, I am looking for reported log10 IC50 with human V1a receptor (Homo sapiens, UniProt P37288) for O=C(NCC(F)(F)F)Nc1cccnc1-n1cnc(Cn2nc(-c3ccc(Cl)cc3)n(C[C@H](O)C(F)(F)F)c2=O)n1 [Example 63] . Could you help?
0.50

Value wanted: log10 IC50 (human V1a receptor (Homo sapiens, UniProt P37288)) of entry O=C1CN(C(=O)c2nc(Cn3nc(-c4ccc(Cl)cc4)n(C[C@H](O)C(F)(F)F)c3=O)nn2-c2ncccc2C(=O)N[C@H]2C[C@H]2F)CCN1 (racemic) [Example 527]
3.03

* * *

Test target: human V1a receptor (Homo sapiens)
Construct: expressed in transfected cells; host or cells: CHO K1 (ATCC), also stably transfected with a modified aequorin
Assay protocol: Cellular in vitro assay for determining vasopressin receptor activity, V1a receptor cell line (CHO, aequorin luminescence)
Assay type: cell-based
Condition parameters: selectivity ratio IC50 hV2 / IC50 hV1a
Experimental: B-1. Cellular In Vitro Assay for Determining Vasopressin Receptor Activity The identification of agonists and antagonists of the V1a and V2 vasopressin receptors from humans, rats and dogs as well as the quantification of the activity of the compounds of the invention is carried out using recombinant cell lines. […] The bioluminescence of the cell lines is detected using a suitable luminometer [Milligan G, Marshall F, Rees S, Trends in Pharmacological Sciences 17, 235-237 (1996)]. […]
Each record is given 1.0 if its reported ratio IC50 hV2/hV1a is strictly below 100. Records at or above 100 are given 0.0.

Report whether reported ratio IC50 hV2/hV1a is lower than 100 (strictly) for CC(C)C(=O)Nc1ncccc1-n1cnc(Cn2nc(-c3ccc(Cl)cc3)n(C[C@H](O)C(F)(F)F)c2=O)n1
1.0

State whether 100 exceeds ratio IC50 hV2/hV1a recorded for Cc1cccnc1NC(=O)c1ccccc1-n1cnc(Cn2nc(-c3ccc(Cl)cc3)n(C[C@H](O)C(F)(F)F)c2=O)n1 .
0.0

Just wondering, is ratio IC50 hV2/hV1a of O=C1CN(C(=O)c2nc(Cn3nc(-c4ccc(Cl)cc4)n(C[C@H](O)C(F)(F)F)c3=O)nn2-c2ncccc2C(=O)N[C@H]2C[C@H]2F)CCN1 (racemic) below 100?
1.0

Hi there! Is ratio IC50 hV2/hV1a for CC1CCC(C)N1C(=O)c1ccccc1-n1cnc(Cn2nc(-c3ccc(Cl)cc3)n(C[C@H](O)C(F)(F)F)c2=O)n1 (mixture of isomers) below 100, do you know?
0.0

I wonder whether O=C(c1ccccc1-n1cnc(Cn2nc(-c3ccc(Cl)cc3)n(C[C@H](O)C(F)(F)F)c2=O)n1)N1CC=CCC1 has ratio IC50 hV2/hV1a below 100. Can you tell?
0.0

Determine if Cc1cc(NC(=O)c2ccccc2-n2cnc(Cn3nc(-c4ccc(Cl)cc4)n(C[C@H](O)C(F)(F)F)c3=O)n2)ccc1F shows ratio IC50 hV2/hV1a strictly lower than 100.
1.0

Consider the compound O=C(Nc1ccccc1Cl)c1ccccc1-n1cnc(Cn2nc(-c3ccc(Cl)cc3)n(C[C@H](O)C(F)(F)F)c2=O)n1 . Is its ratio IC50 hV2/hV1a strictly less than 100?
1.0

Is ratio IC50 hV2/hV1a strictly under 100 for the entry CS(=O)(=O)NCC(=O)Nc1cccnc1-n1cnc(Cn2nc(-c3ccc(Cl)cc3)n(C[C@H](O)C(F)(F)F)c2=O)n1 ?
1.0

Regarding CN(CC(F)(F)F)C(=O)c1ccccc1-n1cnc(Cn2nc(-c3ccc(Cl)cc3)n(C[C@H](O)C(F)(F)F)c2=O)n1 , kindly confirm whether its ratio IC50 hV2/hV1a is beneath 100.
0.0

Find out if reported ratio IC50 hV2/hV1a for O=C(NC1CC1F)c1cccnc1-n1cnc(Cn2nc(-c3ccc(Cl)cc3)n(C[C@H](O)C(F)(F)F)c2=O)n1 (mixture of isomers) is less than 100
1.0

Find out if reported ratio IC50 hV2/hV1a for NC(=O)[C@@H]1CC(F)(F)CN1C(=O)c1ccccc1-n1cnc(Cn2nc(-c3ccc(Cl)cc3)n(C[C@H](O)C(F)(F)F)c2=O)n1 is less than 100
0.0

Given the entry O=C(Nc1ncccc1-n1cnc(Cn2nc(-c3ccc(Cl)cc3)n(C[C@H](O)C(F)(F)F)c2=O)n1)C1CCCCC1 , would its reported ratio IC50 hV2/hV1a be below 100?
1.0

# strict comparison: is reported ratio IC50 hV2/hV1a < 100? input = O=C1CCC(CNc2ccncc2-n2cnc(Cn3nc(-c4ccc(Cl)cc4)n(C[C@H](O)C(F)(F)F)c3=O)n2)N1 (mixture of isomers)
1.0

Source: patent US11173151B2
